Molecular target: T1, VLP2 (virus-like particles of AAV2) (AAV2, UniProt P03135 1-735; P03135 1-598; P03135 1-533)
T1 construct: Empty AAV2 capsid; background says about 60 protein molecules, VP1:VP2:VP3 = 1:1:10; Immobilised on the ELISA plate
T1 sequence (P03135 whole entry, chain 1 of 3): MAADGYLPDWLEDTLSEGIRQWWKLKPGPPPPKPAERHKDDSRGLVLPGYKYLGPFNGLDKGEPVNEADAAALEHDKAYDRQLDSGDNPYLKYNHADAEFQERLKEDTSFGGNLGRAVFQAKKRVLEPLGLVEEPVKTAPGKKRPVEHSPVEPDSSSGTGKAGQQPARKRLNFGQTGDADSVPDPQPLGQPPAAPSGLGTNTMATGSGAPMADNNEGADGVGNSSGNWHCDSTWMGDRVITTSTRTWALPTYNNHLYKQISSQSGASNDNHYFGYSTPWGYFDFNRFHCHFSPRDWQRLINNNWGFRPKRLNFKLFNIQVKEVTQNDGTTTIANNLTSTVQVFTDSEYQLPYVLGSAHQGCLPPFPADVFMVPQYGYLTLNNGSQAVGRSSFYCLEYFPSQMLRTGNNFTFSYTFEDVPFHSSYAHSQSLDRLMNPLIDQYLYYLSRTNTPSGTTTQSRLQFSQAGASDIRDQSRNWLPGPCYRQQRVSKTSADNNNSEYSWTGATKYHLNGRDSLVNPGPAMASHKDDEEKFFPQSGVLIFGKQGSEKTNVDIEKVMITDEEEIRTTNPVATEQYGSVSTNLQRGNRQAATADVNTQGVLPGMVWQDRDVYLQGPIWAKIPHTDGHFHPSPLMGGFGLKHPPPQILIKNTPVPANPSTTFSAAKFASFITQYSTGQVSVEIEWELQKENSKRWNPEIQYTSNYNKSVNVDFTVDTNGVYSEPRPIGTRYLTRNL
T1 sequence (P03135 139-735, tags left off, chain 2 of 3): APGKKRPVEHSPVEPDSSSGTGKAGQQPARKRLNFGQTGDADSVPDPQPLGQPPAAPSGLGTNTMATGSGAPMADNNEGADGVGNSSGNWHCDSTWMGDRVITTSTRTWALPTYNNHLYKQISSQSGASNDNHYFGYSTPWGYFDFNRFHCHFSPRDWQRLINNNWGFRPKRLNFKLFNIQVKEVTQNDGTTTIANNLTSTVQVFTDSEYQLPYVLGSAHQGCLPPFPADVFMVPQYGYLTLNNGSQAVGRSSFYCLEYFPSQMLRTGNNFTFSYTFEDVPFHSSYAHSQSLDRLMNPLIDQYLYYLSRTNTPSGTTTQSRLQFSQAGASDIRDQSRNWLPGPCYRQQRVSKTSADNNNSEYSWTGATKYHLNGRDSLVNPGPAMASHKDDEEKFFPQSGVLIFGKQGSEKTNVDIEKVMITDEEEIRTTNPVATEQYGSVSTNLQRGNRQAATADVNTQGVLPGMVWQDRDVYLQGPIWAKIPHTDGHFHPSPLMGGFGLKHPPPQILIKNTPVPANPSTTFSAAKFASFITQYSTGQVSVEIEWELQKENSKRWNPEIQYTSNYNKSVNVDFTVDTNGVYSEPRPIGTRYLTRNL
T1 sequence (P03135 203-735, chain 3 of 3): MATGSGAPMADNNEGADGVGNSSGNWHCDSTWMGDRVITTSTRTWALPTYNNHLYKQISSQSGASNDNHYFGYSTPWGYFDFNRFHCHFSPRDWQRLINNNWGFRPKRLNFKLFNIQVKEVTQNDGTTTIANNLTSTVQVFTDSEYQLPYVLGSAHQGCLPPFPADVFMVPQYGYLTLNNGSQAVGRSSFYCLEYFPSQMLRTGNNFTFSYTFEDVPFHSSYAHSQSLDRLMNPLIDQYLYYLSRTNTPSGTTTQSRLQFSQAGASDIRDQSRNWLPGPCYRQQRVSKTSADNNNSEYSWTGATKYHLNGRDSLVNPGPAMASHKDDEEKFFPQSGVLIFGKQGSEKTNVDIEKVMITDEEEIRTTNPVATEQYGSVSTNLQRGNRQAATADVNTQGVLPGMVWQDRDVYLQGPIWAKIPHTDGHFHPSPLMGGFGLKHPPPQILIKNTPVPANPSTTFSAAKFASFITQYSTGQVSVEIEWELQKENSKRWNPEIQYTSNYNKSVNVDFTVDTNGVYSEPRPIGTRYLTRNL
Experiment: ELISA on VLP2; A450 after pH 3.0 66.1°C 15 min / 25°C
readout type: Residual activity after heat treatment [%] (%)

1) AVR4a (Ile319Phe, Tyr342Cys, Gly390Ser, Ser476Arg) (receptor) MGSAGESVQFTLPKNEVQLNAYVLQEPPKGETCTYDWQLITHPRDYSGEMEGKHSQILKLSKLTPGLYEFKVIVEGQNAHSEGYVNVTVKPEPRKNRPPIAIVSPQFQEISLPTTSTVIDGSQSTDDDKIVQYHWEELKGPLREEKISEDTAILKLSKLVPGNYTFRLTVVDSDGATNSTTANLTVNKAVDHHHHHH; 8
2) AVR5b (Ile319Phe, Lys323Glu, Tyr342Cys, Gly390Ser, Ser476Arg) (receptor) MGSAGESVQFTLPENEVQLNAYVLQEPPKGETCTYDWQLITHPRDYSGEMEGKHSQILKLSKLTPGLYEFKVIVEGQNAHSEGYVNVTVKPEPRKNRPPIAIVSPQFQEISLPTTSTVIDGSQSTDDDKIVQYHWEELKGPLREEKISEDTAILKLSKLVPGNYTFRLTVVDSDGATNSTTANLTVNKAVDHHHHHH; 23
3) AVR3 (AAV-binding protein No. 75; Tyr342Cys, Gly390Ser, Ser476Arg) (receptor) MGSAGESVQITLPKNEVQLNAYVLQEPPKGETCTYDWQLITHPRDYSGEMEGKHSQILKLSKLTPGLYEFKVIVEGQNAHSEGYVNVTVKPEPRKNRPPIAIVSPQFQEISLPTTSTVIDGSQSTDDDKIVQYHWEELKGPLREEKISEDTAILKLSKLVPGNYTFRLTVVDSDGATNSTTANLTVNKAVDHHHHHH; 2
4) AVR5e (Tyr342Cys, Gly390Ser, Lys399Glu, Ser476Arg, Asn487Asp) (receptor) MGSAGESVQITLPKNEVQLNAYVLQEPPKGETCTYDWQLITHPRDYSGEMEGKHSQILKLSKLTPGLYEFKVIVEGQNAHSEGYVNVTVEPEPRKNRPPIAIVSPQFQEISLPTTSTVIDGSQSTDDDKIVQYHWEELKGPLREEKISEDTAILKLSKLVPGNYTFRLTVVDSDGATDSTTANLTVNKAVDHHHHHH; 43
